MEASURED TARGET: α-N-Acetyl-galaktosaminidase
METHOD SUMMARY: Inhibition of α-N-acetylgalactosaminidase
MEASUREMENT CONDITIONS: α-N-Acetyl-galaktosaminidase aus Charonia lampas; read-out: IC₅₀

{"columns": ["SMILES", "IC50, nM"],
 "data": [
  ["CC(=O)N[C@H]1CN[C@H](CO)[C@H](O)[C@@H]1O", 1400]
]}
